system: Methicillin-resistant S. aureus ATCC 43300; test: microbe, parasite or virus in culture; settings: ATCC 43300, 24 h
Residues, ends and D or L forms follow the SMILES beside them. *: point of attachment. Myristoyl = CCCCCCCCCCCCCC(=O)*
measurementKind: MIC MRSA (µg/mL)

- compound: "CCCCCCCCCCC(=O)N[C@@H](CCCCN)C(=O)N[C@@H](CCCCN)C(=O)N[C@@H](CCCCNC(=O)[C@H]1NC(=O)[C@H]2NC(=O)[C@H](NC(=O)[C@@H]3NC(=O)[C@H](CC(N)=O)NC(=O)[C@H](NC(=O)[C@@H](CC(C)C)NC)[C@H](O)c4ccc(c(Cl)c4)Oc4cc3cc(c4O[C@@H]3O[C@H](CO)[C@@H](O)[C@H](O)[C@H]3O[C@H]3C[C@](C)(N)[C@H](O)[C@H](C)O3)Oc3ccc(cc3Cl)[C@H]2O)c2ccc(O)c(c2)-c2c(O)cc(O)cc21)C(=O)NC [Compound 22, nC10CO-KK-K(Vancomycin)-NHMe]"
  qualifierOperator: "="
  obsValue: 0.015
- compound: "CCCCCCCCCCCCCC(=O)NCC(=O)N[C@@H](CO)C(=O)N[C@@H](CO)C(=O)N[C@@H](CCCCN)C(=O)N[C@@H](CO)C(=O)N1CCC[C@H]1C(=O)N[C@@H](CO)C(=O)N[C@@H](CCCCN)C(=O)N[C@@H](CCCCN)C(=O)N[C@@H](CCCCN)C(=O)N1CCC[C@H]1C(=O)N[C@@H](CS)C(N)=O [Compound 12a] (Myristoyl-GSSKSPSKKKPC-NH2)"
  qualifierOperator: ">"
  obsValue: 8
- compound: "CCCCCCCCCC(=O)N[C@@H](CCCCN)C(=O)N[C@@H](CCCCN)C(=O)N[C@@H](CCCCN)C(=O)N[C@@H](CCCCNC(=O)[C@H]1NC(=O)[C@H]2NC(=O)[C@H](NC(=O)[C@@H]3NC(=O)[C@H](CC(N)=O)NC(=O)[C@H](NC(=O)[C@@H](CC(C)C)NC)[C@H](O)c4ccc(c(Cl)c4)Oc4cc3cc(c4O[C@@H]3O[C@H](CO)[C@@H](O)[C@H](O)[C@H]3O[C@H]3C[C@](C)(N)[C@H](O)[C@H](C)O3)Oc3ccc(cc3Cl)[C@H]2O)c2ccc(O)c(c2)-c2c(O)cc(O)cc21)C(=O)O"
  qualifierOperator: "="
  obsValue: 0.06
- compound: "CCCCCCCCCCCCCC(=O)NCC(=O)N[C@@H](CO)C(=O)N[C@@H](CO)C(=O)N[C@@H](CCCCN)C(=O)N[C@@H](CO)C(=O)N1CCC[C@H]1C(=O)N[C@@H](CO)C(=O)N[C@@H](CCCCN)C(=O)N[C@@H](CCCCN)C(=O)N[C@@H](CCCCN)C(=O)N[C@@H](CCCCN)C(=O)N[C@@H](CCCCN)C(=O)N[C@@H](CCCCN)C(=O)N1CCC[C@H]1C(=O)NCC(=O)N[C@@H](CC(=O)O)C(=O)N[C@@H](CS)C(N)=O [Compound 8a] (Myristoyl-GSSKSPSKKKKKKPGDC-NH2)"
  qualifierOperator: ">"
  obsValue: 8

---

experiment: in vitro; conditions: human, 50% human plasma (pooled, sodium heparin) in PBS, pH 7.4

- molecule: "CCCCCCCCCCC(=O)N[C@@H](CCCCNC(=O)[C@H]1NC(=O)[C@H]2NC(=O)[C@H](NC(=O)[C@@H]3NC(=O)[C@H](CC(N)=O)NC(=O)[C@H](NC(=O)[C@@H](CC(C)C)NC)[C@H](O)c4ccc(c(Cl)c4)Oc4cc3cc(c4O[C@@H]3O[C@H](CO)[C@@H](O)[C@H](O)[C@H]3O[C@H]3C[C@](C)(N)[C@H](O)[C@H](C)O3)Oc3ccc(cc3Cl)[C@H]2O)c2ccc(O)c(c2)-c2c(O)cc(O)cc21)C(=O)O [Compound 20, nC10CO-K(Vancomycin)-OH]"
  remaining at 1 h, 20 µM / %: 101

---

assay: In vivo pharmacokinetics in mice; details: male, CD1, plasma; mouse, 2 mg/kg IV, 5 min, n=3
measurementKind: concentration at 5 min (ng/mL)

- compound: "CN[C@H](CC(C)C)C(=O)N[C@H]1C(=O)N[C@@H](CC(N)=O)C(=O)N[C@H]2C(=O)N[C@H]3C(=O)N[C@H](C(=O)N[C@H](C(=O)O)c4cc(O)cc(O)c4-c4cc3ccc4O)[C@H](O)c3ccc(c(Cl)c3)Oc3cc2cc(c3O[C@@H]2O[C@H](CO)[C@@H](O)[C@H](O)[C@H]2O[C@H]2C[C@](C)(N)[C@H](O)[C@H](C)O2)Oc2ccc(cc2Cl)[C@H]1O [Compound 1, Vancomycin]"
  obsValue: 5790

---

assay: In vivo pharmacokinetics in mice; settings: male, CD1, plasma; mouse, 2 mg/kg IV, 0.250 h; read-out: Plasma concentration, Mean IV

- smilesCode: "CN[C@H](CC(C)C)C(=O)N[C@H]1C(=O)N[C@@H](CC(N)=O)C(=O)N[C@H]2C(=O)N[C@H]3C(=O)N[C@H](C(=O)N[C@H](C(=O)O)c4cc(O)cc(O)c4-c4cc3ccc4O)[C@H](O)c3ccc(c(Cl)c3)Oc3cc2cc(c3O[C@@H]2O[C@H](CO)[C@@H](O)[C@H](O)[C@H]2O[C@H]2C[C@](C)(N)[C@H](O)[C@H](C)O2)Oc2ccc(cc2Cl)[C@H]1O"
  concentration at […] / ng/mL: 3590

---

assay: Haemolysis assay; type: cell-based; conditions: human; 100 µg mL-1; read-out: % Human Whole Blood Haemolysis
measurementKind: hemolysis at 3 h, 100 µg mL-1

- smilesCode: "CN[C@H](CC(C)C)C(=O)N[C@H]1C(=O)N[C@@H](CC(N)=O)C(=O)N[C@H]2C(=O)N[C@H]3C(=O)N[C@H](C(=O)N[C@H](C(=O)O)c4cc(O)cc(O)c4-c4cc3ccc4O)[C@H](O)c3ccc(c(Cl)c3)Oc3cc2cc(c3O[C@@H]2O[C@H](CO)[C@@H](O)[C@H](O)[C@H]2O[C@H]2C[C@](C)(N)[C@H](O)[C@H](C)O2)Oc2ccc(cc2Cl)[C@H]1O"
  obsValue: "0.3%"

---

test: In vivo pharmacokinetics in mice; conditions: male, CD1, plasma; mouse, 10 mg/kg SC, 4.00 h; read-out: Plasma concentration, Mean SC

- smilesCode: "CN[C@H](CC(C)C)C(=O)N[C@H]1C(=O)N[C@@H](CC(N)=O)C(=O)N[C@H]2C(=O)N[C@H]3C(=O)N[C@H](C(=O)N[C@H](C(=O)O)c4cc(O)cc(O)c4-c4cc3ccc4O)[C@H](O)c3ccc(c(Cl)c3)Oc3cc2cc(c3O[C@@H]2O[C@H](CO)[C@@H](O)[C@H](O)[C@H]2O[C@H]2C[C@](C)(N)[C@H](O)[C@H](C)O2)Oc2ccc(cc2Cl)[C@H]1O"
  concentration at 4 h [ng/mL]: 137

---

test: In vivo pharmacokinetics in mice; conditions: male, CD1, plasma; mouse, IV 2 mg kg-1; read-out: Vdss
measurementKind: Vd

- smilesCode: "CN[C@H](CC(C)C)C(=O)N[C@H]1C(=O)N[C@@H](CC(N)=O)C(=O)N[C@H]2C(=O)N[C@H]3C(=O)N[C@H](C(=O)N[C@H](C(=O)O)c4cc(O)cc(O)c4-c4cc3ccc4O)[C@H](O)c3ccc(c(Cl)c3)Oc3cc2cc(c3O[C@@H]2O[C@H](CO)[C@@H](O)[C@H](O)[C@H]2O[C@H]2C[C@](C)(N)[C@H](O)[C@H](C)O2)Oc2ccc(cc2Cl)[C@H]1O"
  obsValue: "0.39 L/kg"

---

test: In vivo pharmacokinetics in mice; conditions: male, CD1, plasma; mouse, 10 mg/kg SC, 0.500 h; read-out: Plasma concentration, Mean SC

- molecule: "CN[C@H](CC(C)C)C(=O)N[C@H]1C(=O)N[C@@H](CC(N)=O)C(=O)N[C@H]2C(=O)N[C@H]3C(=O)N[C@H](C(=O)N[C@H](C(=O)O)c4cc(O)cc(O)c4-c4cc3ccc4O)[C@H](O)c3ccc(c(Cl)c3)Oc3cc2cc(c3O[C@@H]2O[C@H](CO)[C@@H](O)[C@H](O)[C@H]2O[C@H]2C[C@](C)(N)[C@H](O)[C@H](C)O2)Oc2ccc(cc2Cl)[C@H]1O [Compound 1, Vancomycin]"
  readingUnit: "ng/mL"
  concentration at 0.5 h: 9580

---

assay: In vivo pharmacokinetics in mice; conditions: male, CD1, plasma; mouse, IV 2 mg kg-1; read-out: MRT0-inf

- smilesCode: "CN[C@H](CC(C)C)C(=O)N[C@H]1C(=O)N[C@@H](CC(N)=O)C(=O)N[C@H]2C(=O)N[C@H]3C(=O)N[C@H](C(=O)N[C@H](C(=O)O)c4cc(O)cc(O)c4-c4cc3ccc4O)[C@H](O)c3ccc(c(Cl)c3)Oc3cc2cc(c3O[C@@H]2O[C@H](CO)[C@@H](O)[C@H](O)[C@H]2O[C@H]2C[C@](C)(N)[C@H](O)[C@H](C)O2)Oc2ccc(cc2Cl)[C@H]1O"
  readingUnit: "min"
  MRT inf: 37.2
